Where do the numbers come from? From patent USRE37534E1.

- Test system: rat jejunal sac
- ASSAY NAME: Permeation of everted rat jejunal sac by iron complexes
- Format: in vitro ADME
- CONDITION LABEL: relative to ferric chloride as 1; 15 minutes
Relative iron uptake, 15 minutes vs 4: less than gives Y; not less than gives N.

QUERY: Below 4 on Relative iron uptake, 15 minutes? Entry Cc1occc(=O)c1[O-].Cc1occc(=O)c1[O-].Cc1occc(=O)c1[O-].[Fe+3] [Fe^III (maltol)3]
RESULT: N

QUERY: Would you kindly repeat that for O=S(=O)([O-])[O-].[Fe+2] [Fe^II sulphate] ?
RESULT: Y

QUERY: Would you kindly repeat that for O=C([O-])CCC(=O)[O-].[Fe+2] [Fe^II succinate] ?
RESULT: Y

QUERY: Would you kindly repeat that for O=C([O-])[C@H](O)[C@@H](O)[C@H](O)[C@H](O)CO.O=C([O-])[C@H](O)[C@@H](O)[C@H](O)[C@H](O)CO.[Fe+2] [Fe^II gluconate] ?
RESULT: Y

QUERY: Would you kindly repeat that for [Cl][Fe]([Cl])[Cl] [FeCl3] ?
RESULT: Y

====

- ASSAY NAME: Partition coefficient Kpart n-octanol / Tris hydrochloride
- Assay type: physicochemical
- CONDITION LABEL: pH 7.4
READOUT LABEL: logD
Please respond with just the number, no unit label.

QUERY: Which logD is listed for Cc1occc(=O)c1O [maltol, 3-hydroxy-2-methyl-4-pyrone] ?
RESULT: -0.18

====

- Tested on: rat jejunal sac
- ASSAY NAME: Permeation of everted rat jejunal sac by iron complexes
- Format: in vitro ADME
- CONDITION LABEL: relative to ferric chloride as 1; 60 minutes
READOUT LABEL: Relative iron uptake, 60 minutes
Please respond with just the number, no unit label.

QUERY: Which Relative iron uptake, 60 minutes is listed for O=C([O-])[C@H](O)[C@@H](O)[C@H](O)[C@H](O)CO.O=C([O-])[C@H](O)[C@@H](O)[C@H](O)[C@H](O)CO.[Fe+2] [Fe^II gluconate] ?
RESULT: 0.8

QUERY: Would you kindly repeat that for O=S(=O)([O-])[O-].[Fe+2] [Fe^II sulphate] ?
RESULT: 1.4

QUERY: Would you kindly repeat that for O=C([O-])CCC(=O)[O-].[Fe+2] [Fe^II succinate] ?
RESULT: 1.0

QUERY: Would you kindly repeat that for O=C([O-])/C=C/C(=O)[O-].[Fe+2] [Fe^II fumarate] ?
RESULT: 1.8

QUERY: Would you kindly repeat that for [Cl][Fe]([Cl])[Cl] ?
RESULT: 1

QUERY: Would you kindly repeat that for Cc1occc(=O)c1[O-].Cc1occc(=O)c1[O-].Cc1occc(=O)c1[O-].[Fe+3] ?
RESULT: 5.8
